Target: Tissue alpha-L-fucosidase (Bos taurus)
Sequence (Q2KIM0 whole entry): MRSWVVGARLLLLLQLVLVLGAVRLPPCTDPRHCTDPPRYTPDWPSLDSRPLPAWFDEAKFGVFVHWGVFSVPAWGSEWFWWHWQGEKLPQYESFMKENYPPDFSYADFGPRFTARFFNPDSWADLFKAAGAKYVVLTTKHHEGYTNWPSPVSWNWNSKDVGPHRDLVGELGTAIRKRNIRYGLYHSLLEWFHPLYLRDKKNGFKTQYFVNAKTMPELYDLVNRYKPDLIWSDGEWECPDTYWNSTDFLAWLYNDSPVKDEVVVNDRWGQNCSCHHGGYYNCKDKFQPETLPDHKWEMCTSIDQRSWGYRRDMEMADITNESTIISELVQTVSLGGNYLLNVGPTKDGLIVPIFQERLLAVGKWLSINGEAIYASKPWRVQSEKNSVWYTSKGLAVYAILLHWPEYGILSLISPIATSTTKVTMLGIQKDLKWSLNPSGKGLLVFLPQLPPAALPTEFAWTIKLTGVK
Assay: Inhibitory concentration against bovine alpha-L-fucosidase
pIC50: −log10 of the molar value.

# CPD SMILES, TARGET DESC, pIC50
records = [
    ("OC[C@@H]1NC[C@@H](O)[C@H](O)[C@@H]1O", "Tissue alpha-L-fucosidase (Bos taurus)", 6.20),
]

---

This listing pairs molecules with measured inhibition.
Target: Tissue alpha-L-fucosidase (Bos taurus)
Settings: 1000 uM

# CPD SMILES, inhibition
measured = [
    ("OC[C@@H]1NC[C@H](O)[C@H](O)[C@H]1O", "< 50%"),
    ("OC[C@@H]1NC[C@@H](O)[C@H](O)[C@H]1O", "< 50%"),
    ("OC[C@H]1NC[C@H](O)[C@@H](O)[C@H]1O", "< 50%"),
    ("OC[C@H]1NC[C@H](O)[C@H](O)[C@H]1O", "< 50%"),
    ("OC[C@@H]1NC[C@@H](O)[C@@H](O)[C@H]1O", "< 50%"),
    ("OC[C@@H]1NC[C@H](O)[C@@H](O)[C@@H]1O", "< 50%"),
    ("OC[C@H]1NC[C@@H](O)[C@H](O)[C@H]1O", "< 50%"),
    ("OC[C@@H]1NC[C@H](O)[C@@H](O)[C@H]1O", "< 50%"),
    ("OC[C@H]1NC[C@H](O)[C@H](O)[C@@H]1O", "< 50%"),
]

---

Target: Tissue alpha-L-fucosidase (Bos taurus)
Assay: Inhibitory concentration against alpha-L-fucosidase of bovine epididymis

# COMPOUND, IC50
records = [
    ("OC[C@@H]1NC[C@@H](O)[C@@H](O)[C@@H]1O", "156 µM"),
    ("OC[C@H]1NC[C@@H](O)[C@@H](O)[C@@H]1O [DEOXYMANNOJIRIMYCIN]", "39 µM"),
]

---

Biological target: Beta-mannosidase (Homo sapiens)
Assay: Percent inhibition of human beta-mannosidase at 1000 uM
This listing pairs compounds with measured inhibition.

# COMPOUND, inhibition
records = [
    ("OC[C@H]1NC[C@H](O)[C@@H](O)[C@H]1O", "< 50%"),
    ("OC[C@@H]1NC[C@H](O)[C@H](O)[C@H]1O", "< 50%"),
    ("OC[C@H]1NC[C@H](O)[C@@H](O)[C@@H]1O [DUVOGLUSTAT]", "< 50%"),
    ("OC[C@@H]1NC[C@@H](O)[C@@H](O)[C@H]1O", "< 50%"),
    ("OC[C@@H]1NC[C@@H](O)[C@H](O)[C@@H]1O", "< 50%"),
    ("OC[C@H]1NC[C@H](O)[C@H](O)[C@@H]1O", "< 50%"),
]
